Each item that follows carries a reported pKd.
system under test: Retinoic acid receptor RXR-alpha (Homo sapiens, UniProt P19793)
Sequence (P19793 whole entry, the tested form may be a part): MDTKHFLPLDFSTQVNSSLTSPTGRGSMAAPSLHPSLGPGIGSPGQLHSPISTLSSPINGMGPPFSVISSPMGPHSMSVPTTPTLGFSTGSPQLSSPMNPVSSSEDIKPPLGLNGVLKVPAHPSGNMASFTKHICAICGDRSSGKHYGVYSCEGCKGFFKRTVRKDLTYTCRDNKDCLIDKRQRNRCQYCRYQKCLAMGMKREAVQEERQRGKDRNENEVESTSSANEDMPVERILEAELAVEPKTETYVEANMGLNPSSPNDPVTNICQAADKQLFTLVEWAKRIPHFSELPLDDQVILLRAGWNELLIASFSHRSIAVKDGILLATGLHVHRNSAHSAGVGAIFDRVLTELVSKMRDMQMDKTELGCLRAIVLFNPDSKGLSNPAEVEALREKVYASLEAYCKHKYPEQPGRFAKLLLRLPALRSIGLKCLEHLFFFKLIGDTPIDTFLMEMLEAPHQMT
test: Binding affinity to human RXRalpha LBD (T225 to T462 residues) by fluorescence quenching assay
pKd: −log10 of the molar value.
result type: pKd

INSERT INTO measurements (compound, result_type, result_number) VALUES
  ('CCCC1=C(CCC(C)C)/C(=C/C(C)=C\C=C\C(C)=C\C(=O)O)CCC1', 'pKd', 8.44),
  ('CCCCC1=C(CCC(C)C)/C(=C/C(C)=C\C=C\C(C)=C\C(=O)O)CCC1', 'pKd', 8.33),
  ('CCC(C)C1=C(CCC(C)C)/C(=C/C(C)=C\C=C\C(C)=C\C(=O)O)CCC1 (mixture of isomers)', 'pKd', 8.39);

----------
Each item that follows carries a reported pEC50.
system under test: Retinoic acid receptor RXR-alpha (Homo sapiens, UniProt P19793)
test: Agonist activity at human GAL4-fused RXRalpha LBD (T225 to T462 residues) expressed in HEK293 cells incubated for 24 hrs by Dual-Glo luciferase assay
pEC50: −log10 of the molar value.
result type: pEC50

INSERT INTO assay_data (compound, system_under_test, result_number) VALUES
  ('CCCCC1=C(CCC(C)C)/C(=C/C(C)=C\C=C\C(C)=C\C(=O)O)CCC1', 'Retinoic acid receptor RXR-alpha (Homo sapiens, UniProt P19793)', 6.68),
  ('CCCC1=C(CCC(C)C)/C(=C/C(C)=C\C=C\C(C)=C\C(=O)O)CCC1', 'Retinoic acid receptor RXR-alpha (Homo sapiens, UniProt P19793)', 7.21),
  ('CCC(C)C1=C(CCC(C)C)/C(=C/C(C)=C\C=C\C(C)=C\C(=O)O)CCC1 (mixture of isomers)', 'Retinoic acid receptor RXR-alpha (Homo sapiens, UniProt P19793)', 7.64);

----------
system under test: Retinoic acid receptor RXR-alpha (Homo sapiens, UniProt P19793)
test: Binding affinity to human RXRalpha LBD (T225 to T462 residues) assessed as binding constant by isothermal titration calorimetry
pKd: −log10 of the molar value.
Each item that follows carries a reported pKd.
result type: pKd

INSERT INTO assay_data (molecule, result_type, result_number) VALUES
  ('CCC(C)C1=C(CCC(C)C)/C(=C/C(C)=C\C=C\C(C)=C\C(=O)O)CCC1 (mixture of isomers)', 'pKd', 5.46),
  ('CCCCC1=C(CCC(C)C)/C(=C/C(C)=C\C=C\C(C)=C\C(=O)O)CCC1', 'pKd', 5.51),
  ('CCCC1=C(CCC(C)C)/C(=C/C(C)=C\C=C\C(C)=C\C(=O)O)CCC1', 'pKd', 5.70);
